# credit: patent US20250170112A1

MEASURED TARGET: human Adenosine A1 receptor (Homo sapiens, UniProt P30542)
Sequence (P30542 whole entry): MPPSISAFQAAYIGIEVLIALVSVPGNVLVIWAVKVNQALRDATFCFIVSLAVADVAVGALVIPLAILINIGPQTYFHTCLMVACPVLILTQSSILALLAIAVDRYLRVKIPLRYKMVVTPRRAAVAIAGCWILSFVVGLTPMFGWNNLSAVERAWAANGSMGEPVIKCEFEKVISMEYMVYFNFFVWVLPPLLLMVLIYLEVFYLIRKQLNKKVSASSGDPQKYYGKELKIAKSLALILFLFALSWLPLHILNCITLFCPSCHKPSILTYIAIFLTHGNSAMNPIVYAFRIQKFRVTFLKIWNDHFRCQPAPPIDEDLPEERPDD
PROTOCOL SUMMARY: GTPγS scintillation proximity assay, agonist testing
EXPERIMENTAL PARAMETERS: agonist activity; membrane extracts of CHO-K1 cells expressing recombinant human A1; read-out: A1AR EC50
pEC50: −log10 of the molar value.
Rule: pEC50 of 7 or more gives 1 (yes); anything lower gives 0 (no).

[[record]]
compound = "COCCOc1ccc(-c2c(C#N)c(N)nc(S[C@@H](C)c3cccnc3)c2C#N)cc1"
measured_target = "human Adenosine A1 receptor (Homo sapiens, UniProt P30542)"
answer_label = "1 (yes)"

[[record]]
compound = "COCCOc1ccc(-c2c(C#N)c(SCc3ncccn3)nc(N3CC(F)C3)c2C#N)cc1"
measured_target = "human Adenosine A1 receptor (Homo sapiens, UniProt P30542)"
answer_label = "0 (no)"

[[record]]
compound = "Cc1ncccc1CSc1nc(N2CCCC2)c(C#N)c(-c2ccc(OCCO)cc2)c1C#N"
measured_target = "human Adenosine A1 receptor (Homo sapiens, UniProt P30542)"
answer_label = "0 (no)"

[[record]]
compound = "N#Cc1c(N)nc(SCC2COC2)c(C#N)c1-c1ccc(OC(F)(F)COC(F)F)cc1"
measured_target = "human Adenosine A1 receptor (Homo sapiens, UniProt P30542)"
answer_label = "0 (no)"

[[record]]
compound = "CNc1nc(SCC2COC2)c(C#N)c(-c2ccc(OC3COC3)cc2)c1C#N [Compound 314]"
measured_target = "human Adenosine A1 receptor (Homo sapiens, UniProt P30542)"
answer_label = "1 (yes)"

[[record]]
compound = "N#Cc1c(N)nc(OCC2CCCCO2)c(C#N)c1-c1ccc(OC2COC2)cc1 (centres unmarked)"
measured_target = "human Adenosine A1 receptor (Homo sapiens, UniProt P30542)"
answer_label = "0 (no)"

[[record]]
compound = "COCCOc1ccc(-c2c(C#N)c(N)nc(SCc3ccc4c(c3)OCC4)c2C#N)cc1"
measured_target = "human Adenosine A1 receptor (Homo sapiens, UniProt P30542)"
answer_label = "0 (no)"

[[record]]
compound = "Cc1ccc(CSc2nc(N3CCC3)c(C#N)c(-c3ccc(OCCO)cc3)c2C#N)c(C)n1"
measured_target = "human Adenosine A1 receptor (Homo sapiens, UniProt P30542)"
answer_label = "0 (no)"

[[record]]
compound = "N#Cc1c(N)nc(CCc2cccnc2)c(C#N)c1-c1ccc(OCCO)cc1"
measured_target = "human Adenosine A1 receptor (Homo sapiens, UniProt P30542)"
answer_label = "0 (no)"

[[record]]
compound = "N#Cc1c(N)nc(SCC2COCOC2)c(C#N)c1-c1ccc(OC2COC2)cc1"
measured_target = "human Adenosine A1 receptor (Homo sapiens, UniProt P30542)"
answer_label = "0 (no)"

[[record]]
compound = "COCCOc1ccc(-c2c(C#N)c(SCc3cccnc3)nc(N3CC(F)C3)c2C#N)cc1"
measured_target = "human Adenosine A1 receptor (Homo sapiens, UniProt P30542)"
answer_label = "1 (yes)"

[[record]]
compound = "N#Cc1c(SCc2cccnc2)nc(N2CCC2)c(C#N)c1-c1ccc(OCCOC(F)F)cc1"
measured_target = "human Adenosine A1 receptor (Homo sapiens, UniProt P30542)"
answer_label = "0 (no)"

[[record]]
compound = "COCCOc1ccc(-c2c(C#N)c(N)nc(SCc3cncc4[nH]ccc34)c2C#N)cc1"
measured_target = "human Adenosine A1 receptor (Homo sapiens, UniProt P30542)"
answer_label = "0 (no)"

[[record]]
compound = "COCCOc1ccc(-c2c(C#N)c(SCC3COC3)nc(N3CCC3)c2C#N)cc1"
measured_target = "human Adenosine A1 receptor (Homo sapiens, UniProt P30542)"
answer_label = "0 (no)"

